# assayProcedure: Effective permeability of compound by PAMPA assay
# Type: ADME
# testContext: read-out: Peff
measureName: Papp (×10⁻⁶ cm/s)
Answer in ×10⁻⁶ cm/s, number only, no unit symbol.

Need Papp of CO[C@@H]1[C@@H](OC(=O)c2ccc(C)[nH]2)[C@@H](O)[C@H](Oc2ccc3c(O)c(NC(=O)c4cn(C)cn4)c(=O)oc3c2C)OC1(C)C , thanks.
1.61

Moving on to the next compound: C[C@@H]1CN2c3c(cc4c(N5C(=O)OC[C@@H]5C)noc4c3F)CC3(C(=O)NC(=O)NC3=O)[C@H]2[C@H](C)O1
0.039

Try the compound C=Cc1cc(C(=O)Nc2c(O)c3ccc(O[C@@H]4OC(C)(C)[C@H](OC)[C@@H](OC(=O)c5ccc(C)[nH]5)[C@H]4O)c(C)c3oc2=O)ccc1N
8.06

###

Please go through the items and note down their MIC90.
# Test system: Neisseria gonorrhoeae
# assayProcedure: Antibacterial activity against resistant Neisseria gonorrhoeae assessed inhibition of bacterial growth
# Type: functional
State the answer as a number, implicitly in µg/mL.

Returns the measured MIC90 for the input compound. Input: CO/N=C(\C(=O)N[C@@H]1C(=O)N2C(C(=O)O)=C(CSc3nc(=O)c(O)nn3C)CS[C@H]12)c1csc(N)n1
0.25

Now consider CO[C@@H]1[C@@H](OC(=O)c2ccc(C)[nH]2)[C@@H](O)[C@H](Oc2ccc3c(O)c(NC(=O)Cn4c(-c5ccccn5)nc5ccccc54)c(=O)oc3c2C)OC1(C)C and answer again.
0.5

CO[C@@H]1[C@@H](OC(=O)c2ccc(C)[nH]2)[C@@H](O)[C@H](Oc2ccc3c(O)c(NC(=O)c4ccc(O)c(CC=C(C)C)c4)c(=O)oc3c2C)OC1(C)C ?
0.125

###

# assayProcedure: Effective permeability of compound by PAMPA assay
# Format: ADME
# testContext: read-out: Peff
Would you please tag the item true when its Papp is 10 ×10⁻⁶ cm/s or above, and false when it is below?

Check the entry CO[C@@H]1[C@@H](OC(=O)c2ccc(C)[nH]2)[C@@H](O)[C@H](Oc2ccc3c(O)c(NC(=O)c4ccnc(C)c4)c(=O)oc3c2C)OC1(C)C : does Papp equal or exceed 10 ×10⁻⁶ cm/s?
false

Let us now turn to CC[C@H]1OC(=O)[C@@](C)(F)C(=O)[C@H](C)[C@@H](O[C@@H]2O[C@H](C)C[C@H](N(C)C)[C@H]2O)[C@](C)(OC)C[C@@H](C)C(=O)[C@H](C)[C@H]2N(CCCCn3cc(-c4cccc(N)c4)nn3)C(=O)O[C@]12C
false

Would you mind doing CO[C@@H]1[C@@H](OC(=O)c2ccc(C)[nH]2)[C@@H](O)[C@H](Oc2ccc3c(O)c(NC(=O)c4ccc(O)c(CC=C(C)C)c4)c(=O)oc3c2C)OC1(C)C as well?
true

Subsequent entry: O=c1ccc2ncc(=O)n3c2n1C[C@H]3CN1CCC(NCc2cc3c(cn2)OCCC3)CC1
false

Repeat for the following compound: CO[C@@H]1[C@@H](OC(=O)c2ccc(C)[nH]2)[C@@H](O)[C@H](Oc2ccc3c(O)c(NC(=O)c4ccc(C)c(C)c4)c(=O)oc3c2C)OC1(C)C
true

Now consider C#CCONC(=O)O[C@H]1[C@@H](O)[C@H](Oc2ccc3c(O)c(NC(=O)c4ccc(O)c(CC=C(C)C)c4)c(=O)oc3c2C)OC(C)(C)[C@@H]1OC .
false

###

Field: MIC90. Provide a value for each of the compounds that follow.
# Test system: Neisseria gonorrhoeae
# assayProcedure: Antibacterial activity against resistant Neisseria gonorrhoeae assessed inhibition of bacterial growth
# Format: functional
Lab book: enter the figure in µg/mL, no units written.

Requested read-out: MIC90. Entry: CO[C@@H]1[C@@H](OC(=O)c2ccc(C)[nH]2)[C@@H](O)[C@H](Oc2ccc3c(O)c(NC(=O)c4cn(Cc5ccccn5)cn4)c(=O)oc3c2C)OC1(C)C
0.5

And then CO[C@@H]1[C@@H](OC(=O)c2ccc(C)[nH]2)[C@@H](O)[C@H](Oc2ccc3c(O)c(NC(=O)c4ccccc4)c(=O)oc3c2C)OC1(C)C , what is it?
1

Proceed to CO[C@@H]1[C@@H](OC(=O)c2ccc(C)[nH]2)[C@@H](O)[C@H](Oc2ccc3c(O)c(NC(=O)c4cncn4C)c(=O)oc3c2C)OC1(C)C
1

And what about the compound CO[C@@H]1[C@@H](OC(=O)c2ccc(C)[nH]2)[C@@H](O)[C@H](Oc2ccc3c(O)c(NC(=O)c4c(C)ncn4CC=C(C)C)c(=O)oc3c2C)OC1(C)C ?
0.5

Next compound up: CCCn1cnc(C(=O)Nc2c(O)c3ccc(O[C@@H]4OC(C)(C)[C@H](OC)[C@@H](OC(=O)c5ccc(C)[nH]5)[C@H]4O)c(C)c3oc2=O)c1
1

Query C=CCONC(=O)O[C@H]1[C@@H](O)[C@H](Oc2ccc3c(O)c(NC(=O)c4ccc(O)c(CC=C(C)C)c4)c(=O)oc3c2C)OC(C)(C)[C@@H]1OC next
2

Record: CO[C@@H]1[C@@H](OC(=O)c2ccc(C)[nH]2)[C@@H](O)[C@H](Oc2ccc3c(O)c(NC(=O)c4cccc(N5CCN(C)CC5)c4)c(=O)oc3c2C)OC1(C)C
1

Could you do the same for CO[C@@H]1[C@@H](OC(=O)c2ccc(C)[nH]2)[C@@H](O)[C@H](Oc2ccc3c(O)c(NC(=O)c4csc(C)n4)c(=O)oc3c2C)OC1(C)C , please?
0.5

###

# assayProcedure: Aqueous solubility of compound in neutral JP2 solution
# Assay type: physicochemical
# testContext: JP2 solution; read-out: solubility
Please note: true (1) applies when solubility is 70 µM or greater, and false (0) applies otherwise.

Textbook exercise: given the entry CO[C@@H]1[C@@H](OC(=O)c2ccc(C)[nH]2)[C@@H](O)[C@H](Oc2ccc3c(O)c(NC(=O)c4cn(C)cn4)c(=O)oc3c2C)OC1(C)C , state whether its solubility is greater than or equal to 70 µM.
true (1)

Now consider C[C@@H]1CN2c3c(cc4c(N5C(=O)OC[C@@H]5C)noc4c3F)CC3(C(=O)NC(=O)NC3=O)[C@H]2[C@H](C)O1 .
false (0)

What do you get for CC[C@H]1OC(=O)[C@@](C)(F)C(=O)[C@H](C)[C@@H](O[C@@H]2O[C@H](C)C[C@H](N(C)C)[C@H]2O)[C@](C)(OC)C[C@@H](C)C(=O)[C@H](C)[C@H]2N(CCCCn3cc(-c4cccc(N)c4)nn3)C(=O)O[C@]12C ?
false (0)

// query: CO[C@@H]1[C@@H](OC(=O)c2ccc(C)[nH]2)[C@@H](O)[C@H](Oc2ccc3c(O)c(NC(=O)CN(C)C)c(=O)oc3c2C)OC1(C)C
true (1)

Further, for C=Cc1cc(C(=O)Nc2c(O)c3ccc(O[C@@H]4OC(C)(C)[C@H](OC)[C@@H](OC(=O)c5ccc(C)[nH]5)[C@H]4O)c(C)c3oc2=O)ccc1N ?
false (0)

Also check CO[C@@H]1[C@@H](OC(=O)c2ccc(C)[nH]2)[C@@H](O)[C@H](Oc2ccc3c(O)c(NC(=O)c4ccc(C)c(C)c4)c(=O)oc3c2C)OC1(C)C
true (1)

For CO[C@@H]1[C@@H](OC(=O)c2ccc(C)[nH]2)[C@@H](O)[C@H](Oc2ccc3c(O)c(NC(=O)CCN(C)C)c(=O)oc3c2C)OC1(C)C then?
true (1)

###

For each record, write down the corresponding log10(MIC90).
# Test system: Staphylococcus aureus
# assayProcedure: Antibacterial activity against Staphylococcus aureus assessed inhibition of bacterial growth
# Assay type: functional
Units before log transform: µg/mL; reported quantity: MIC90; transform: log10.

// returns reported log10(MIC90) for input CO[C@@H]1[C@@H](OC(=O)c2ccc(C)[nH]2)[C@@H](O)[C@H](Oc2ccc3c(O)c(NC(=O)c4cncn4C)c(=O)oc3c2C)OC1(C)C
-0.30

Then CO[C@@H]1[C@@H](OC(=O)c2ccc(C)[nH]2)[C@@H](O)[C@H](Oc2ccc3c(O)c(NC(=O)c4cn(C)cn4)c(=O)oc3c2C)OC1(C)C ?
-0.30

What about this compound? CO[C@@H]1[C@@H](OC(=O)c2ccc(C)[nH]2)[C@@H](O)[C@H](Oc2ccc3c(O)c(NC(=O)c4ccc(C)c(C)c4)c(=O)oc3c2C)OC1(C)C
-1.80

Then this compound: CO[C@@H]1[C@@H](OC(=O)c2ccc(C)[nH]2)[C@@H](O)[C@H](Oc2ccc3c(O)c(NC(=O)c4ccccc4)c(=O)oc3c2C)OC1(C)C
-0.90

Continue with CO[C@@H]1[C@@H](OC(=O)c2ccc(C)[nH]2)[C@@H](O)[C@H](Oc2ccc3c(O)c(NC(=O)Cn4c(-c5ccccn5)nc5ccccc54)c(=O)oc3c2C)OC1(C)C
-0.30

Further, for CO[C@@H]1[C@@H](OC(=O)c2ccc(C)[nH]2)[C@@H](O)[C@H](Oc2ccc3c(O)c(NC(=O)c4ccnc(N(C)C)c4)c(=O)oc3c2C)OC1(C)C ?
-0.30

Please do the same for CO[C@@H]1[C@@H](OC(=O)c2ccc(C)[nH]2)[C@@H](O)[C@H](Oc2ccc3c(O)c(NC(=O)CCN(C)C)c(=O)oc3c2C)OC1(C)C as well.
0.60

// same read-out, input: CO[C@@H]1[C@@H](OC(=O)c2ccc(C)[nH]2)[C@@H](O)[C@H](Oc2ccc3c(O)c(NC(=O)c4cn(Cc5cccc(C(F)(F)F)c5)cn4)c(=O)oc3c2C)OC1(C)C
-0.60

Also, CO[C@@H]1[C@@H](OC(=O)c2ccc(C)[nH]2)[C@@H](O)[C@H](Oc2ccc3c(O)c(NC(=O)c4ccncc4)c(=O)oc3c2C)OC1(C)C please.
0.90

// repeat for CO[C@@H]1[C@@H](OC(=O)c2ccc(C)[nH]2)[C@@H](O)[C@H](Oc2ccc3c(O)c(NC(=O)c4cn(CC5CC5)cn4)c(=O)oc3c2C)OC1(C)C and report
-0.30

Same thing, different compound: C=Cc1cc(C(=O)Nc2c(O)c3ccc(O[C@@H]4OC(C)(C)[C@H](OC)[C@@H](OC(=O)c5ccc(C)[nH]5)[C@H]4O)c(C)c3oc2=O)ccc1N
-0.30

Consider next the compound CO[C@@H]1[C@@H](OC(=O)c2ccc(C)[nH]2)[C@@H](O)[C@H](Oc2ccc3c(O)c(NC(=O)CN(C)C)c(=O)oc3c2C)OC1(C)C in the same way.
0.30

How about this compound: CO[C@@H]1[C@@H](OC(=O)c2ccc(C)[nH]2)[C@@H](O)[C@H](Oc2ccc3c(O)c(NC(=O)c4ccnc(C)c4)c(=O)oc3c2C)OC1(C)C
0.00

Next compound: CO[C@@H]1[C@@H](OC(N)=O)[C@@H](O)[C@H](Oc2ccc3c(O)c(NC(=O)c4ccc(O)c(CC=C(C)C)c4)c(=O)oc3c2C)OC1(C)C [NOVOBIOCIN]
-0.60

Lookup CO[C@@H]1[C@@H](OC(=O)NOCC(C)C)[C@@H](O)[C@H](Oc2ccc3c(O)c(NC(=O)c4ccc(O)c(CC=C(C)C)c4)c(=O)oc3c2C)OC1(C)C
0.00

Could you do the same for CO[C@@H]1[C@@H](OC(=O)c2ccc[nH]2)[C@@H](O)[C@H](Oc2ccc3c(O)c(NC(=O)c4ccc(O)c(CC=C(C)C)c4)c(=O)oc3c2C)OC1(C)C , please?
-0.60

All figures here come from ChEMBL document CHEMBL5325486.
